Origin of values: patent US4113946A

- assay_details: in vivo
- condition_description: mouse, po, 100 mg/kg
readout_label: concentration at 3.5 h (ng/mL)
API: value field is a number in ng/mL; no unit string.

Field concentration at 3.5 h (entry CC1=C(C(=O)O)N2C(=O)[C@@H](NC(=O)C(N)c3ccccc3)[C@H]2CO1 (stereo partly shown) ) reads 2900

====

- System: D. pneumoniae A9585
- assay_details: M.I.C. by tube dilution, D. pneumoniae A9585
- Assay type: cell-based
- condition_description: Streptococcus pneumoniae, A9585; +5% serum; 50% Nutrient Broth - 45% Antibiotic Assay Broth; overnight 37° C.; read-out: M.I.C.
Structures can show the parent of a compound that is named as a salt.
readout_label: MIC (µg/mL)
API: value field is a number in µg/mL; no unit string.

Some compounds with recorded MIC:
compound="COC(=O)CC1=C(C(=O)O)N2C(=O)[C@@H](NC(=O)COc3ccccc3)[C@H]2CO1 (relative stereo) [BC-L33]" readout_label=MIC observed=0.06
compound="O=C(COc1ccccc1)NC1C(=O)N2C(C(=O)O)=C(Cc3ccccc3)OCC12 (stereo not shown) [BC-L17]" readout_label=MIC observed=0.25
compound="O=C(COc1ccccc1)NC1C(=O)N2C(C(=O)O)=C(CCc3ccccc3)OCC12 (stereo not shown) [BC-L54]" readout_label=MIC observed=0.03

Moving on to the next compound.
Field MIC (entry CC1=C(C(=O)O)N2C(=O)[C@@H](NC(=O)[C@H](N)c3ccccc3)[C@H]2CO1 [BC-L9, hydrochloride] ) reads 0.5

====

- Tested on: Ent. cloacae A9659
- assay_details: M.I.C. by tube dilution, Ent. cloacae A9659
- Type: cell-based
- condition_description: Enterobacter cloacae, A9659, overnight 37° C.
Structures can show the parent of a compound that is named as a salt.
readout_label: MIC (µg/mL)
API: value field is a number in µg/mL; no unit string.

Field MIC (entry CC1=C(C(=O)O)N2C(=O)[C@@H](NC(=O)[C@H](N)c3ccccc3)[C@H]2SC1 [Cephalexin, cephalexin, reference compound] ) reads 125

Field MIC (entry CC1=C(C(=O)O)N2C(=O)[C@@H](NC(=O)[C@H](N)c3ccccc3)[C@H]2CO1 [BC-L9, hydrochloride] ) reads 125

Field MIC (entry CC1=C(C(=O)O)N2C(=O)[C@@H](NC(=O)C(N)c3ccccc3)[C@H]2CO1 (stereo partly drawn) ) reads 125

====

- System: S. aureus meth.-resist; A15097
- assay_details: M.I.C. by tube dilution, S. aureus meth.-resist A15097
- Assay type: cell-based
- condition_description: Staphylococcus aureus, at 10^-3 dil'n; overnight 37° C.
Structures can show the parent of a compound that is named as a salt.
# MIC listing for each entry below
API: value field is a number in µg/mL; no unit string.

Some molecules with recorded MIC:
molecule="O=C(COc1ccccc1)NC1C(=O)N2C(C(=O)O)=C(Cc3ccccc3)OCC12 (stereo not drawn)" readout_label=MIC u=µg/mL observed=125
molecule="CC1=C(C(=O)O)N2C(=O)[C@@H](NC(=O)COc3ccccc3)[C@H]2CO1 (relative stereo)" readout_label=MIC u=µg/mL observed=32
molecule="O=C(COc1ccccc1)NC1C(=O)N2C(C(=O)O)=C(CCc3ccccc3)OCC12 (stereo not drawn)" readout_label=MIC u=µg/mL observed=125

Moving on to the next molecule.
Measured MIC for this entry CC1=C(C(=O)O)N2C(=O)[C@@H](NC(=O)[C@H](N)c3ccccc3)[C@H]2CO1 [BC-L9, hydrochloride] on S. aureus meth.-resist; A15097: 32

====

# MIC listing for each entry below
- Tested on: Ps. aeruginosa A9843A
- assay_details: microbe, parasite or virus in culture
- Assay type: cell-based
- condition_description: Pseudomonas aeruginosa
Counter-ions that a name gives are not always drawn.

Field MIC (entry O=C(COc1ccccc1)NC1C(=O)N2C(C(=O)O)=C(CCc3ccccc3)OCC12 (centres unmarked) ) reads > 125 µg/mL

Field MIC (entry COC(=O)CC1=C(C(=O)O)N2C(=O)[C@@H](NC(=O)COc3ccccc3)[C@H]2CO1 (relative stereo) ) reads > 125 µg/mL

Field MIC (entry CC1=C(C(=O)O)N2C(=O)[C@@H](NC(=O)[C@H](N)c3ccccc3)[C@H]2CO1 [BC-L9, hydrochloride] ) reads > 500 µg/mL

Field MIC (entry CC1=C(C(=O)O)N2C(=O)[C@@H](NC(=O)C(N)c3ccccc3)[C@H]2CO1 (some centres unmarked) ) reads > 125 µg/mL

Field MIC (entry N[C@@H](C(=O)N[C@@H]1C(=O)N2C(C(=O)O)=COC[C@H]12)c1ccccc1 ) reads > 500 µg/mL

Field MIC (entry CC1=C(C(=O)O)N2C(=O)[C@@H](NC(=O)COc3ccccc3)[C@H]2CO1 (relative stereo) ) reads 500 µg/mL

Field MIC (entry O=C(COc1ccccc1)NC1C(=O)N2C(C(=O)O)=C(Cc3ccccc3)OCC12 (centres unmarked) ) reads > 125 µg/mL

Field MIC (entry O=C(COc1ccccc1)N[C@@H]1C(=O)N2C(C(=O)O)=COC[C@H]12 (relative stereo) ) reads > 125 µg/mL

====

- Test system: E. coli Juhl A15119
- assay_details: M.I.C. by tube dilution, E. coli Juhl A15119
- Format: cell-based
- condition_description: Escherichia coli, JUHLA15119
Where a name gives a salt, the structure may show the parent alone.
readout_label: MIC (µg/mL)
API: value field is a number in µg/mL; no unit string.

molecule="COC(=O)CC1=C(C(=O)O)N2C(=O)[C@@H](NC(=O)COc3ccccc3)[C@H]2CO1 (relative stereo)" observed=125
molecule=N[C@@H](C(=O)N[C@@H]1C(=O)N2C(C(=O)O)=COC[C@H]12)c1ccccc1 observed=125

Field MIC (entry CC1=C(C(=O)O)N2C(=O)[C@@H](NC(=O)[C@H](N)c3ccccc3)[C@H]2CO1 [BC-L9, hydrochloride] ) reads 32

====

# MIC listing for each entry below
- Test system: D. pneumoniae A9585
- assay_details: M.I.C. by tube dilution, D. pneumoniae A9585
- Format: cell-based
- condition_description: Streptococcus pneumoniae, A9585; +5% serum; 50% Nutrient Broth - 45% Antibiotic Assay Broth; overnight 37° C.; read-out: M.I.C.

compound="O=C(COc1ccccc1)N[C@@H]1C(=O)N2C(C(=O)O)=COC[C@H]12 (relative stereo)" readout_label=MIC observed="0.6 µg/mL"
compound="CC1=C(C(=O)O)N2C(=O)[C@@H](NC(=O)C(N)c3ccccc3)[C@H]2CO1 (stereo partly drawn)" readout_label=MIC observed="< 0.25 µg/mL"

Field MIC (entry CC1=C(C(=O)O)N2C(=O)[C@@H](NC(=O)COc3ccccc3)[C@H]2CO1 (relative stereo) ) reads 0.5 µg/mL

====

- assay_details: in vivo
- condition_description: mouse, po, 100 mg/kg
readout_label: concentration at 2 h (µg/mL)
API: value field is a number in µg/mL; no unit string.

Field concentration at 2 h (entry CC1=C(C(=O)O)N2C(=O)[C@@H](NC(=O)C(N)c3ccccc3)[C@H]2CO1 (stereo partly shown) ) reads 7.3

====

# MIC listing for each entry below
- Test system: Ent. cloacae A9659
- assay_details: M.I.C. by tube dilution, Ent. cloacae A9659
- Format: cell-based
- condition_description: Enterobacter cloacae, A9659, overnight 37° C.

Field MIC (entry O=C(COc1ccccc1)NC1C(=O)N2C(C(=O)O)=C(CCc3ccccc3)OCC12 (stereo not drawn) [BC-L54] ) reads > 125 µg/mL

Field MIC (entry O=C(COc1ccccc1)NC1C(=O)N2C(C(=O)O)=C(Cc3ccccc3)OCC12 (stereo not drawn) [BC-L17] ) reads > 125 µg/mL

Field MIC (entry COC(=O)CC1=C(C(=O)O)N2C(=O)[C@@H](NC(=O)COc3ccccc3)[C@H]2CO1 (relative stereo) [BC-L33] ) reads > 125 µg/mL
